Origin of the recorded values: BindingDB's records for doi:10.7270/Q2319T8T

Quick reference for pIC50 among some compounds
molecular target: Steroidogenic factor 1 (Homo sapiens); assay: blockers of SF-1 LBD reporter transcription – cell-based, CHO-K1, Gal4-SF-1 LBD, luciferase luminescence, dose response (AID 600); conditions: inactive by the depositor's call
pIC50: −log10 of the molar value.

{"columns": ["compound", "tested.system", "pIC50"],
 "data": [
  ["Cn1c(-c2ccccc2)cc2c3no[n+]([O-])c3ccc21", "Steroidogenic factor 1 (Homo sapiens)", 4.82],
  ["CCCCN(CCCC)S(=O)(=O)c1ccc(C(=O)Nc2nnc(CSC)o2)cc1", "Steroidogenic factor 1 (Homo sapiens)", 4.78],
  ["CCN(C1CCCCC1)S(=O)(=O)c1ccc(S(=O)(=O)NCc2ccncc2)cc1", "Steroidogenic factor 1 (Homo sapiens)", 4.71],
  ["Cn1nc(CC(=O)Nc2ccc3c(c2)OCCO3)c2ccccc2c1=O [MLS000047020]", "Steroidogenic factor 1 (Homo sapiens)", 4.89],
  ["Cc1ccnc(SCC(=O)Nc2sc3c(c2C#N)CCCC3)n1 [MLS000077260]", "Steroidogenic factor 1 (Homo sapiens)", 4.87]
]}

---

target: Steroidogenic factor 1 (Homo sapiens, UniProt Q13285); experiment: blockers of SF-1 LBD reporter transcription – cell-based, CHO-K1, Gal4-SF-1 LBD, luciferase luminescence, dose response (AID 600)
Sequence (Q13285 whole entry, the tested form may be a part): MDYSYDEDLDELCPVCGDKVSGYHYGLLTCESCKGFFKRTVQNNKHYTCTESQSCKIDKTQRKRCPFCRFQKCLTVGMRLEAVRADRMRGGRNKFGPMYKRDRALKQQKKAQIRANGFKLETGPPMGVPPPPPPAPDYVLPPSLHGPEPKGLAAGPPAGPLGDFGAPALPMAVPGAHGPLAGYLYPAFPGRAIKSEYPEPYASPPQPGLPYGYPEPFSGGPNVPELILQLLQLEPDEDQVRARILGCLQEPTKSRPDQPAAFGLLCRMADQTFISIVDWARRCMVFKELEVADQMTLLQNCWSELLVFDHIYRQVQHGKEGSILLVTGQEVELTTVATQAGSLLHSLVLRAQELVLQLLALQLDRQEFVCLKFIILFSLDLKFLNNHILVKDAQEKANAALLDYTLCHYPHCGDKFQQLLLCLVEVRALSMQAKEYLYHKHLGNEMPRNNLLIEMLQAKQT

{"columns": ["molecular.string", "tested.system", "result.qualifier", "IC50 / µM"],
 "data": [
  ["CC[C@]1(O)CC2C[N@](CCc3c([nH]c4ccccc34)[C@@](C(=O)OC)(c3cc4c(cc3OC)N(C)[C@H]3[C@@](O)(C(=O)OC)[C@H](OC(C)=O)[C@]5(CC)C=CCN6CC[C@]43[C@@H]65)C2)C1", "Steroidogenic factor 1 (Homo sapiens, UniProt Q13285)", "=", 0.986],
  ["O=C(NCc1ccco1)c1ccc2nc3sc4c(c3c(=O)n2c1)CCCC4", "Steroidogenic factor 1 (Homo sapiens, UniProt Q13285)", ">", 3.67],
  ["CCn1c2ccccc2c2cc(NC(=O)CSc3nnnn3-c3ccccc3)ccc21", "Steroidogenic factor 1 (Homo sapiens, UniProt Q13285)", "=", 6.92],
  ["O=C(O)c1cccc(COc2ccc(CO)cc2Cl)c1", "Steroidogenic factor 1 (Homo sapiens, UniProt Q13285)", "=", 0.547],
  ["COc1ccc(C(=O)Nn2c(SCC(=O)NCc3ccco3)nc3ccccc3c2=O)cc1", "Steroidogenic factor 1 (Homo sapiens, UniProt Q13285)", "=", 5.75],
  ["Clc1ccc(OCCN2CCN(c3ncnc4sccc34)CC2)cc1", "Steroidogenic factor 1 (Homo sapiens, UniProt Q13285)", "=", 3.44],
  ["COc1cccc2sc(Nc3nc(-c4ccccn4)cs3)nc12", "Steroidogenic factor 1 (Homo sapiens, UniProt Q13285)", "=", 4.48],
  ["CCOc1ccc(Nc2cc(C)nc(-n3nc(C)cc3C)n2)cc1", "Steroidogenic factor 1 (Homo sapiens, UniProt Q13285)", "=", 7.83],
  ["Cc1cc(C=c2sc3nc4ccccc4n3c2=O)c(C)n1-c1ccccn1", "Steroidogenic factor 1 (Homo sapiens, UniProt Q13285)", ">", 0.00503]
]}

---

# maps each entry to its log10(IC50)
target: Steroidogenic factor 1 (Homo sapiens, UniProt Q13285); experiment: blockers of SF-1 LBD reporter transcription – cell-based, CHO-K1, Gal4-SF-1 LBD, luciferase luminescence, dose response (AID 600)
endpoint.label: log10(IC50) (log10 of the value in µM)

{"columns": ["compound", "log10(IC50)"],
 "data": [
  ["COc1ccc(-n2ncc3c(N(C)C4CCCCC4)ncnc32)cc1 [MLS000100813]", -0.53],
  ["CCOc1ccccc1-n1c(SCC(=O)Nc2ccc(CC)cc2)nc2nnc(C)c-2c1N [MLS000047091]", 0.78],
  ["CCOC(=O)c1c(C)[nH]c(C(=O)C(C)OC(=O)c2cccc(OCc3c(C)noc3C)c2)c1C (stereo not drawn) [MLS000054923]", 0.92],
  ["Cc1cccc(-n2ncc3c(N4CCOCC4)ncnc32)c1", 0.60],
  ["CCOC(=O)C1CCN(Cc2ccc(O)c3ncccc23)CC1", 0.99],
  ["COc1cccc2c1C(=O)c1c(O)c3c(c(O)c1C2=O)C[C@@](O)(C(=O)CO)C[C@@H]3O[C@H]1C[C@H](N)[C@H](O)[C@H](C)O1 [MLS000028393]", -0.02],
  ["CNC(=O)CCc1nc(-c2ccc(C(C)(C)C)cc2)no1", -1.24],
  ["O=S1(=O)C=C(Sc2nnc(-c3ccccc3)o2)c2ccccc21", 0.59],
  ["CCOC(=O)C1C(Cn2cnc3ccccc32)=NC(=O)NC1c1cc(C)ccc1C (stereo not drawn)", 1.37],
  ["Cc1cnc(C(=O)Nc2cccc3cccnc23)cn1", 0.95],
  ["CCN(CC)c1ccc2cc(NC(=O)CCC(=O)O)c(=O)oc2c1", 0.71],
  ["O=C(NC1=NCCS1)C1COc2ccccc2O1 (stereo not drawn) [MLS000056062]", 0.72],
  ["COc1cc(C2Nc3cccc4cccc(c34)N2)cc(OC)c1OC(C)=O [MLS000078084]", 0.89],
  ["COc1ccc(CCNc2ncnc3c2oc2ccccc23)cc1OC [MLS000041708]", 0.97],
  ["COc1ccc(-n2ncc3c(N4CCCCC4)ncnc32)cc1", 0.25],
  ["N#CC1C(=N)C(C#N)(C#N)[C@H](c2ccncc2)[C@H]2CN(C(=O)OCc3ccccc3)CC=C12 (stereo partly drawn)", 1.17],
  ["CCn1nc(-c2ccccc2)nc2c(=O)n(C)c(=O)nc1-2", 0.67],
  ["O=S1(=O)Nc2c(ccc3cccnc23)-c2ccccc21", 0.74],
  ["O=c1cc(N2CCN(c3ccccc3)CC2)[nH]c(=O)n1C1CCCCC1 [MLS000094382]", 0.48],
  ["COc1ccc(-c2nc(-c3ccccc3)no2)c(OC)c1", 0.55],
  ["[H][C@@]12C[N@@](CCc3c([nH]c4ccccc34)[C@@](C(=O)OC)(c3cc4c(cc3OC)N(C=O)[C@]3([H])[C@]45CC[N@@]4CC=C[C@@](CC)([C@@H](OC(C)=O)[C@]3(O)C(=O)OC)[C@]45[H])C1)C[C@](O)(CC)C2", 0.55],
  ["COc1nc(Nc2nc(O)c3ccccc3n2)nc2ccc(C)cc12 [SMR000108404]", 0.32],
  ["Cn1nc(CC(=O)Nc2ccc(N3CCN(C(=O)OC(C)(C)C)CC3)cc2)c2ccccc2c1=O", 0.41],
  ["CCCC(=O)N1CCN(c2ccc(NC(=O)c3cc4ccccc4o3)cc2Cl)CC1 [MLS000096729]", 0.94],
  ["COc1ccc(-c2noc(CCCC(=O)NCCc3ccccc3)n2)cc1OC", 0.62]
]}

---

List of pIC50 values.
target: Steroidogenic factor 1 (Homo sapiens); test: blockers of SF-1 LBD reporter transcription – cell-based, CHO-K1, Gal4-SF-1 LBD, luciferase luminescence, dose response (AID 600)
pIC50: −log10 of the molar value.

{"columns": ["molecule", "result.qualifier", "pIC50"],
 "data": [
  ["COc1cc(CC(NC(C)=O)C(=O)NC2CCN(c3nc(C)cc(C)c3C#N)CC2)cc(OC)c1 (stereo not given)", "<", 4.48],
  ["c1ccc2c(c1)CCN(c1nc3cc4c(cc3s1)OCCO4)C2", "=", 5.27],
  ["Nc1cccc(-c2nc3ccc(N)cc3s2)c1", "<", 5.44],
  ["CSCc1nnc(NC(=O)c2ccc(S(=O)(=O)N(CC(C)C)CC(C)C)cc2)o1", "<", 4.96],
  ["Cc1oc2cc3c(C(=O)OCCN(C)C)c(C)oc3cc2c1C(=O)OCCN(C)C", "=", 6.09]
]}

---

target: Steroidogenic factor 1 (Homo sapiens, UniProt Q13285); test: blockers of SF-1 LBD reporter transcription – cell-based, CHO-K1, Gal4-SF-1 LBD, luciferase luminescence, dose response (AID 600)
endpoint.label: IC50

{"columns": ["compound", "tested.system", "test.value"],
 "data": [
  ["COc1cccc(NC(=O)CSc2nnc(-c3cc(C)n(-c4ccccc4)c3C)o2)c1", "Steroidogenic factor 1 (Homo sapiens, UniProt Q13285)", "3.4 µM"],
  ["C=CS(=O)(=O)c1ccc(Oc2ccc(S(=O)(=O)C=C)cc2)cc1", "Steroidogenic factor 1 (Homo sapiens, UniProt Q13285)", "4.19 µM"],
  ["CCOc1ccc(OCc2cccc(C(=O)O)c2)cc1 [3-[(4-ethoxyphenoxy)methyl]benzoic acid]", "Steroidogenic factor 1 (Homo sapiens, UniProt Q13285)", "0.511 µM"],
  ["CC1(C)COCN1S(=O)(=O)c1ccc(C(=O)Nc2nnc(-c3ccc(Cl)s3)o2)cc1 [MLS000086346]", "Steroidogenic factor 1 (Homo sapiens, UniProt Q13285)", "7.61 µM"],
  ["Cc1cnc(NC(=O)CN2CCN(c3ccccn3)CC2)s1 [MLS000035284]", "Steroidogenic factor 1 (Homo sapiens, UniProt Q13285)", "8.52 µM"]
]}
